The molecules below have reported IC50 for EP2 (Homo sapiens (Human), UniProt P43116).

[Q] Complete the entry with IC50 for `Cc1cc2ccccc2n1CCNc1cc(-c2ccc(-c3nnn[nH]3)c(O)c2)ncn1`
[A] 6 nM

[Q] Complete the entry with IC50 for `COc1ccc(F)c2c1cc(C)n2CCNc1cc(-c2ccc(C(=O)O)c(Oc3ccc(F)cc3)c2)ncn1`
[A] 26 nM

[Q] Complete the entry with IC50 for `CCOc1cc(-c2cc(NCCn3c(C#N)cc4c(OC)ccc(F)c43)ncn2)sc1/C=C/C(=O)O`
[A] 35 nM

[Q] Complete the entry with IC50 for `COc1cc(-c2cc(NCCn3c(C)cc4c(OC)ccc(F)c43)ncn2)cc(C)c1C(=O)O`
[A] 47 nM

[Q] Complete the entry with IC50 for `CCOc1cc(-c2cc(NCCn3c(C)cc4c(C)cc(F)cc43)nc(C)n2)ccc1C(=O)O`
[A] 57 nM

[Q] Complete the entry with IC50 for `CCNc1cc(-c2cc(NCCn3c(C)cc4c(OC)ccc(Cl)c43)ncn2)ccc1-c1nnn[nH]1`
[A] 7 nM

[Q] Complete the entry with IC50 for `COc1cccc2c1cc(C)n2CCNc1cc(-c2ccc(C(=O)O)c(OC(F)(F)F)c2)ncn1`
[A] 6 nM

[Q] Complete the entry with IC50 for `CCCOc1cc(-c2cc(NCCn3c(C)cc4c(C)cc(F)c(F)c43)ncn2)cc(Cl)c1C(=O)O`
[A] 89 nM

[Q] Complete the entry with IC50 for `COc1ccc(F)c2c1cc(C)n2CCNc1cc(-c2ccc(C(=O)O)c3c2ccn3C)ncn1`
[A] 63 nM

[Q] Complete the entry with IC50 for `COc1cc(F)cc2c1cc(C)n2CCNc1cc(-c2cc(Cl)c(C(=O)O)c(OCC(F)(F)F)c2)ncn1`
[A] 18 nM

----------
molecular target: PTGER2 (EP2) (Homo sapiens (Human), UniProt P43116); experiment: hEP2 b-arrestin assay (PathHunter HEK 293 PTGER2 b-arrestin cells); type: cell-based; settings: hEP2 b-arrestin assay (values without asterisk)
Sequence (P43116 whole entry): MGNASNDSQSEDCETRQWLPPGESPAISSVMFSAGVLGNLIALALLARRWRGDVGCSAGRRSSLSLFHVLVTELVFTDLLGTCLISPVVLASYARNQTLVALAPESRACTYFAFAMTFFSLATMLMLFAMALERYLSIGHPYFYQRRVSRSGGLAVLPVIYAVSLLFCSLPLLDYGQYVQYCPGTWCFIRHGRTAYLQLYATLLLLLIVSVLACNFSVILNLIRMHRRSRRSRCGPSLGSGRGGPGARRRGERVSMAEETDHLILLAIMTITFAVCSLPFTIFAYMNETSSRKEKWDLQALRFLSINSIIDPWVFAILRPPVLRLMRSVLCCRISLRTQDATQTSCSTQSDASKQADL
Each entry falls in a class defined on IC50; the bands are c1 = under 7 nM, c2 = from 7 nM up to 40 nM, c3 = 40 nM and over

[Q] Just checking, what class would you give CCOc1cc(-c2cc(NCCn3c(C#N)c(F)c4ccccc43)ncn2)sc1C(=O)O [Example 876] here?
[A] c1

[Q] Just checking, what class would you give N#Cc1cc2cccc(F)c2n1CCNc1cc(-c2cc(C(F)(F)F)c(C(=O)O)s2)ncn1 [Example 859] here?
[A] c1

[Q] Just checking, what class would you give COc1ccc(F)c2c1cc(C#N)n2CCNc1cc(-c2cccc3[nH]ccc23)ncn1 [Example 969] here?
[A] c3

[Q] Just checking, what class would you give COc1ccc(F)c2c1cc(C#N)n2CCNc1cc(-c2ccnc(C(F)(F)F)c2)ncn1 [Example 1007] here?
[A] c2

[Q] Just checking, what class would you give COc1ccc(F)c2c1cc(C#N)n2CCNc1cc(-c2c[nH]c3cnccc23)ncn1 [Example 967] here?
[A] c1

[Q] Just checking, what class would you give COc1ncc(-c2cc(NCCn3c(C#N)cc4c(OC)ccc(F)c43)ncn2)cn1 [Example 991] here?
[A] c3

[Q] Just checking, what class would you give CCOc1cc(-c2cc(NCC(C)n3c(C)cc4c(OC)ccc(F)c43)ncn2)sc1C(=O)O (racemic) [Example 796] here?
[A] c3

[Q] Just checking, what class would you give CCOc1cc(-c2cc(NCCn3c(C)cc4c(OC)ccc(F)c43)ncn2)sc1C(=O)NS(C)(=O)=O [Example 1022] here?
[A] c1

[Q] Just checking, what class would you give COc1ccc(F)c2c1cc(C)n2CCNc1cc(-c2nc(C(C)(C)C)c(C(=O)O)s2)ncn1 [Example 1038] here?
[A] c3

[Q] Just checking, what class would you give CCc1nc(-c2cc(NCCn3c(C)cc4c(OC)ccc(F)c43)ncn2)sc1C(=O)O [Example 1037] here?
[A] c3

[Q] Just checking, what class would you give COc1cc(-c2cc(NCCn3c(C#N)cc4c(OC)ccc(F)c43)ncn2)ccc1-c1c[nH]cn1 [Example 818] here?
[A] c1

[Q] Just checking, what class would you give COc1ccc(F)c2c1cc(C#N)n2CCNc1cc(-c2cnc3[nH]ccc3c2)ncn1 [Example 979] here?
[A] c1

[Q] Just checking, what class would you give CCCOc1cc(-c2cc(NCCn3c(C#N)cc4c(OC)ccc(F)c43)ncn2)cc(Cl)c1C(=O)O [Example 907] here?
[A] c2

----------
molecular target: PTRGER4 (EP4) (Homo sapiens (Human)); assay: hEP4 b-arrestin assay (PathHunter HEK 293 PTGER4 b-arrestin cells); type: cell-based; conditions: antagonistic activity on hEP4; mean where measured multiple times
Sequence (P35408 whole entry, looked up): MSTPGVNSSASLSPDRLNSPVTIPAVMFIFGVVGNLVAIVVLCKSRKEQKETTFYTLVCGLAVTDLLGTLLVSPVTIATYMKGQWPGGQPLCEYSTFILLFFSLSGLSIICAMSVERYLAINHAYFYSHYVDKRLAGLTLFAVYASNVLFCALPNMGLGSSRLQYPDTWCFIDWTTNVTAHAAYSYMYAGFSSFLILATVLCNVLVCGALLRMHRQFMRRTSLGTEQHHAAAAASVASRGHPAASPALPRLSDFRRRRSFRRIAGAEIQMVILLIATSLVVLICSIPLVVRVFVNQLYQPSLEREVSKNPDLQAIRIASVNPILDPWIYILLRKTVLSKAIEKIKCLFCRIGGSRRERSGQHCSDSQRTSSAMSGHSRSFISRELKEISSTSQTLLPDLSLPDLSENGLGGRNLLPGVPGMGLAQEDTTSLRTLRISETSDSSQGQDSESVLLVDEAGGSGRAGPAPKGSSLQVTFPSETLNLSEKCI
Value kind: pIC50
The read-out pIC50 is expressed as -log10 of concentration in moles per litre.

[Q] Complete the entry with pIC50 for `COc1ccc(F)c2c1cc(C)n2CCNc1cc(-c2ccc(CO)c(F)c2)ncn1`
[A] 6.60

[Q] Complete the entry with pIC50 for `COc1ccc(F)c2c1cc(C)n2CCNc1cc(-c2ccc(-c3nc(C)no3)cc2)ncn1`
[A] 6.84

[Q] Complete the entry with pIC50 for `COc1cccc2c1cc(C)n2CCNc1cc(-c2ccc(-c3noc(=O)[nH]3)cc2)ncn1`
[A] 6.76

[Q] Complete the entry with pIC50 for `COc1ccc(F)c2c1cc(C)n2CCNc1cc(-c2ccc(C(=O)O)cc2)ncn1`
[A] 6.02

[Q] Complete the entry with pIC50 for `Cc1cc2ccccc2n1CCNc1cc(-c2ccc(C(=O)O)c(CC(C)C)c2)ncn1`
[A] 6.03

----------
target: PTGER2 (EP2) (Homo sapiens (Human)); experiment: hEP2 b-arrestin assay (PathHunter HEK 293 PTGER2 b-arrestin cells); assay type: cell-based; settings: antagonistic activity on hEP2; mean where measured multiple times
pIC50: −log10 of the molar value.
Each entry falls in a class defined on pIC50; the bands are 0 (below 7), 1 (7 to below 8), 2 (8 or more)

[Q] Just checking, what class would you give COc1cc(F)cc2c1cc(C)n2CCNc1cc(-c2ccc3cc[nH]c3c2)ncn1 [compound 63] here?
[A] 1

[Q] Just checking, what class would you give COc1ccc(F)c2c1cc(C)n2CCNc1cc(-c2ccc3[nH]c(C)nc3c2)ncn1 [compound 81] here?
[A] 1

[Q] Just checking, what class would you give CCNc1cc(-c2cc(NCCn3c(C)cc4cccc(Cl)c43)ncn2)ccc1C(=O)O [compound 137] here?
[A] 2

[Q] Just checking, what class would you give COc1ccc(F)c2c1cc(C)n2CCNc1cc(-c2ccc(NC(N)=O)cc2)ncn1 [compound 132] here?
[A] 1

[Q] Just checking, what class would you give Cc1ccc(F)c2c1cc(C)n2CCNc1cc(-c2ccc(-n3cccn3)cc2)ncn1 [compound 73] here?
[A] 0

[Q] Just checking, what class would you give CCNc1cc(-c2cc(NCCn3c(C)cc4c(F)ccc(C)c43)ncn2)ccc1C(=O)O [compound 246] here?
[A] 2

[Q] Just checking, what class would you give COc1ccc(F)c2c1cc(C)n2CCNc1cc(-c2csc(CO)c2)ncn1 [compound 101] here?
[A] 1

[Q] Just checking, what class would you give Cc1ccc(F)c2c1cc(C)n2CCNc1cc(-c2ccc(-c3cnco3)cc2)ncn1 [compound 97] here?
[A] 0

[Q] Just checking, what class would you give Cc1cc2c(Cl)ccc(F)c2n1CCNc1cc(-c2ccc(C(=O)O)cc2)ncn1 [compound 46] here?
[A] 1

----------
Field: pIC50. Provide a value for each of the compounds that follow.
biological target: PTRGER4 (EP4) (Homo sapiens (Human)); test: hEP4 b-arrestin assay (PathHunter HEK 293 PTGER4 b-arrestin cells); format: cell-based; settings: hEP4 b-arrestin assay (values without asterisk)
The read-out pIC50 is expressed as -log10 of concentration in moles per litre.

[Q] # return pIC50 of CCCCOc1cc(-c2cc(NCCn3c(C)cc4c(OC)cc(Cl)c(F)c43)ncn2)ccc1C(=O)O [Example 884] (system: PTRGER4 (EP4) (Homo sapiens (Human)))
[A] 7.08

[Q] # return pIC50 of COc1ccc(F)c2c1cc(C#N)n2CCNc1cc(-c2ccc(-c3c(O)c(=O)c3=O)cc2)ncn1 [Example 933] (system: PTRGER4 (EP4) (Homo sapiens (Human)))
[A] 8.40

[Q] # return pIC50 of N#Cc1cc2c(Cl)cc(F)c(F)c2n1CCNc1cc(-c2cc(F)c(C(=O)O)s2)ncn1 [Example 904] (system: PTRGER4 (EP4) (Homo sapiens (Human)))
[A] 7.31

[Q] # return pIC50 of CCOC(=O)c1csc(-c2cc(NCCn3c(C#N)cc4c(OC)ccc(F)c43)ncn2)c1 [Example 1009] (system: PTRGER4 (EP4) (Homo sapiens (Human)))
[A] 7.96

[Q] # return pIC50 of CCNc1csc(-c2cc(NCCn3c(C)cc4c(OC)cc(F)cc43)ncn2)c1 [Example 1070] (system: PTRGER4 (EP4) (Homo sapiens (Human)))
[A] 7.74

[Q] # return pIC50 of CCOc1cc(-c2cc(NCCn3c(C)cc4c(OC)ccc(F)c43)ncn2)sc1CO [Example 1031] (system: PTRGER4 (EP4) (Homo sapiens (Human)))
[A] 7.72

[Q] # return pIC50 of N#Cc1cc2c(Cl)cc(Cl)cc2n1CCNc1cc(-c2cc(C(F)(F)F)c(C(=O)O)s2)ncn1 [Example 856] (system: PTRGER4 (EP4) (Homo sapiens (Human)))
[A] 7.28

[Q] # return pIC50 of COc1ccc(F)c2c1cc(C#N)n2CCNc1cc(-c2ccc(CNS(C)(=O)=O)cc2)ncn1 [Example 983] (system: PTRGER4 (EP4) (Homo sapiens (Human)))
[A] 6.61

[Q] # return pIC50 of CCOc1cc(-c2cc(NCCn3c(C#N)cc4c(OC)ccc(F)c43)ncn2)sc1C(=O)NS(=O)(=O)c1ccccc1 [Example 814] (system: PTRGER4 (EP4) (Homo sapiens (Human)))
[A] 8.70

[Q] # return pIC50 of COc1ccc(F)c2c1cc(C#N)n2CCNc1cc(-c2ccc(C3(F)COC3)s2)ncn1 [Example 1055] (system: PTRGER4 (EP4) (Homo sapiens (Human)))
[A] 7.22

[Q] # return pIC50 of N#Cc1c(F)c2ccccc2n1CCNc1cc(-c2cc(F)c(C(=O)O)s2)ncn1 [Example 846] (system: PTRGER4 (EP4) (Homo sapiens (Human)))
[A] 6.66

[Q] # return pIC50 of COc1ccc(F)c2c1cc(C#N)n2CCNc1cc(-c2ccc(-c3ncn(C)c3C)cc2)ncn1 [Example 823] (system: PTRGER4 (EP4) (Homo sapiens (Human)))
[A] 8.30

[Q] # return pIC50 of CCOc1cc(-c2cc(NCCn3c(C)cc4c(OC)ccc(F)c43)ncn2)ccc1NCC(=O)O [Example 811] (system: PTRGER4 (EP4) (Homo sapiens (Human)))
[A] 7.70

[Q] # return pIC50 of COc1ccc(F)c2c1cc(C#N)n2CCNc1cc(-c2cc3cc(C(=O)O)ccc3[nH]2)ncn1 [Example 960] (system: PTRGER4 (EP4) (Homo sapiens (Human)))
[A] 8.40

[Q] # return pIC50 of CCOc1cc(-c2cc(NCCn3c(C#N)cc4c(OC)ccc(F)c43)ncn2)ccc1-c1nnn[nH]1 [Example 803] (system: PTRGER4 (EP4) (Homo sapiens (Human)))
[A] 8.40

[Q] # return pIC50 of CCOc1cc(-c2cc(NCCn3c(C#N)cc4c(C)ccc(F)c43)ncn2)sc1C(=O)O [Example 891] (system: PTRGER4 (EP4) (Homo sapiens (Human)))
[A] 8.52

[Q] # return pIC50 of COc1cc(-c2cc(NCCn3c(C#N)cc4c(OC)ccc(F)c43)ncn2)ccn1 [Example 898] (system: PTRGER4 (EP4) (Homo sapiens (Human)))
[A] 6.91

[Q] # return pIC50 of CCOc1cc(-c2cc(NCCn3c(C#N)cc4c(OC)cccc43)ncn2)sc1C(=O)O [Example 813] (system: PTRGER4 (EP4) (Homo sapiens (Human)))
[A] 8.52

[Q] # return pIC50 of COc1cc(-c2cc(NCCn3c(C#N)cc4c(OC)ccc(F)c43)ncn2)ccc1-c1c[nH]cn1 [Example 818] (system: PTRGER4 (EP4) (Homo sapiens (Human)))
[A] 9.00

[Q] # return pIC50 of COc1cc(-c2cc(NCCn3c(C#N)cc4c(OC)ccc(F)c43)ncn2)sc1C1(O)COC1 [Example 826] (system: PTRGER4 (EP4) (Homo sapiens (Human)))
[A] 8.10

[Q] # return pIC50 of CNc1cc(-c2cc(NCCn3c(C#N)cc4c(OC)ccc(F)c43)ncn2)ccc1C(=O)O [Example 1010] (system: PTRGER4 (EP4) (Homo sapiens (Human)))
[A] 8.15

[Q] # return pIC50 of CCCc1cc(-c2cc(NCCn3c(C#N)cc4c(OC)ccc(F)c43)ncn2)cc(F)c1C(=O)O [Example 939] (system: PTRGER4 (EP4) (Homo sapiens (Human)))
[A] 7.77

[Q] # return pIC50 of COc1ccc(F)c2c1cc(C#N)n2CCNc1cc(-c2ccc3[nH]ncc3c2)ncn1 [Example 977] (system: PTRGER4 (EP4) (Homo sapiens (Human)))
[A] 8.22

[Q] # return pIC50 of CCOc1cc(-c2cc(NCCn3c(C#N)cc4c(OC)ccc(F)c43)ncn2)sc1C(=O)NC(C)C [Example 1027] (system: PTRGER4 (EP4) (Homo sapiens (Human)))
[A] 8.52

[Q] # return pIC50 of CCOc1cc(-c2cc(NCCn3c(C#N)cc4c(OC)ccc(F)c43)ncn2)sc1C(=O)NO [Example 1030] (system: PTRGER4 (EP4) (Homo sapiens (Human)))
[A] 8.52

[Q] # return pIC50 of CCOc1cc(-c2cc(NCCn3c(C)cc4c(OC)ccc(F)c43)ncn2)ccc1C(=O)CO [Example 1040] (system: PTRGER4 (EP4) (Homo sapiens (Human)))
[A] 6.39

[Q] # return pIC50 of COc1ccc(F)c2c1cc(C#N)n2CCNc1cc(-c2c[nH]c3ccccc23)ncn1 [Example 968] (system: PTRGER4 (EP4) (Homo sapiens (Human)))
[A] 7.82
